Tested on: human neuroblastoma SHSY5Y
Experiment: Marker enzyme expression (ChAT, TH) in the presence of each ligand of the receptor tyrosine kinase
Type: cell-based
Conditions: SHSY5Y cells, ChAT vs TH, beta-actin control, FIG. 19
endpoint_name: Marker enzyme expression (ChAT, TH) in the presence of ligand

{"columns": ["molecule", "result"],
 "data": [
  ["NGF: NGF (Sigma 2.5 S #N-6009) (protein, UniProt P01139 122-241, looked up, 2.5S NGF) Beta-nerve growth factor: SSTHPVFHMGEFSVCDSVSVWVGDKTTATDIKGKEVTVLAEVNINNSVFRQYFFETKCRASNPVESGCRGIDSKHWNSYCTTTHTFVKALTTDEKQAAWRFIRIDTACVCVLSRKATRRG", "dopaminergic"],
  ["Pehrin A3: ligand of receptor tyrosine kinases EPHA2 and EPHA3 (protein, UniProt P52797 23-214, looked up) Ephrin-A3: QGPGGALGNRHAVYWNSSNQHLRREGYTVQVNVNDYLDIYCPHYNSSGVGPGAGPGPGGGAEQYVLYMVSRNGYRTCNASQGFKRWECNRPHAPHSPIKFSEKFQRYSAFSLGYEFHAGHEYYYISTPTHNLHWKCLRMKVFVCCASTSHSGEKPVPTLPQFTMGPNVKINVLEDFEGENPQVPKLEKSISG", "dopaminergic"],
  ["Ephrin B2: ligand of receptor tyrosine kinases EPHB1, EPHB2, EPHB3 (protein, UniProt P52799 28-333, looked up) Ephrin-B2: IVLEPIYWNSSNSKFLPGQGLVLYPQIGDKLDIICPKVDSKTVGQYEYYKVYMVDKDQADRCTIKKENTPLLNCAKPDQDIKFTIKFQEFSPNLWGLEFQKNKDYYIISTSNGSLEGLDNQEGGVCQTRAMKILMKVGQDASSAGSTRNKDPTRRPELEAGTNGRSSTTSPFVKPNPGSSTDGNSAGHSGNNILGSEVALFAGIASGCIIFIVIIITLVVLLLKYRRRHRKHSPQHTTTLSLSTLATPKRSGNNNGSEPSDIIIPLRTADSVFCPHYEKVSGDYGHPVYIVQEMPPQSPANIYYKV", "dopaminergic"]
]}
